molecular target: human insulin receptor (HIR) (human, UniProt P06213 28-1382, limits assumed); assay: HIR Kd, Table 14; competition with 125I-insulin on solubilised HIR (method of Example 3, not restated for this table)
Consider the following binders; for each one, report its Kd.
# unit: nM | format: bare number

What Kd value was documented for this binder, RB539 (Recombinant F6-F1 (Site 2-Site 1) dimer peptide with tags at both ends) peptide: MADYKDDDDKWLDQEWAWVQCEVYGRGCPSGGSGGSGSLDESFYDWFERQLGKKAAAGAPVPYPDPLEPRPG ?
0.7

Data request, read-out Kd, for RB626 (Recombinant F6-F1 dimer peptide with tags at both ends) peptide: MADYKDEIEAEWGRVRCLVYGRCVGGGGSGGSGGSGGSGSLDESFYDWFERQLGKKAAAGAPVPYPDPLEPRPG
0.3

Sample RB463 (other, not shown: large carriers, MBP fusion, uncleaved) NNNNLGIEGRISEFIEGRAQPAMAFHENFYDWFVRQVSGGSFHENFYDWFVRQVSAAAGAPVPYPDPLEPRAA — what was its Kd?
960
